Give IC50 for every item shown.
Molecular target: Cyclin-dependent kinase 7/ cyclin H (Homo sapiens)
Sequence (P51946 whole entry): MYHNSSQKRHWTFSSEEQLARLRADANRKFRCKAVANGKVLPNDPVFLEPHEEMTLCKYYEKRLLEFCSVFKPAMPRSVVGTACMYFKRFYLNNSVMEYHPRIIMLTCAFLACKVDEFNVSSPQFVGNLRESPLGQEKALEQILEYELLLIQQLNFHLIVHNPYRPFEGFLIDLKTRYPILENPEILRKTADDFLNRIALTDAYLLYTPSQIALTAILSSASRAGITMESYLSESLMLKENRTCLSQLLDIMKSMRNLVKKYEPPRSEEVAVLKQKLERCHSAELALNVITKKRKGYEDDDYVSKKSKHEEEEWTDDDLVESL
Sequence (P50613 whole entry): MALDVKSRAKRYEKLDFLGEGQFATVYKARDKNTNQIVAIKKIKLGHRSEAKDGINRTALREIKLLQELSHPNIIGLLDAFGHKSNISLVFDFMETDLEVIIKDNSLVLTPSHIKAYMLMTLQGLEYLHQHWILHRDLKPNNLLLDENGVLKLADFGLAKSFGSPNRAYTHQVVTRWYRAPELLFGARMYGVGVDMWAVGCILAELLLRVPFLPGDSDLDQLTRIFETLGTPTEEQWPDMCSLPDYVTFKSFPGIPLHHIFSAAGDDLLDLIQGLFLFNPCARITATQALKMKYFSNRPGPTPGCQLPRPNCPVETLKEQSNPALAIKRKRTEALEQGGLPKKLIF
Assay: Inhibition of CDK7/Cyclin H (unknown origin)
Give just the number in nM; leave the unit off.

Specify measured IC50 for CN(C)C/C=C/C(=O)Nc1ccc(C(=O)N2CCC[C@@H](Nc3ncc(C4CC4)c(-c4c[nH]c5ccccc45)n3)C2)cc1 .
625

Specify measured IC50 for CN(C)C/C=C/C(=O)Nc1ccc(C(=O)N2CCCC[C@@H](Nc3ncc(Cl)c(-c4c[nH]c5ccccc45)n3)C2)cc1 .
388

Specify measured IC50 for CN(C)C/C=C/C(=O)Nc1ccc(O[C@@H]2CCC[C@@H](Nc3ncc(Cl)c(-c4c[nH]c5ccccc45)n3)C2)cc1 .
187

Specify measured IC50 for CN(C)C/C=C/C(=O)Nc1ccc(N2CCC[C@@H](Nc3ncc(Cl)c(-c4c[nH]c5ccccc45)n3)C2)cc1 .
69.5

Specify measured IC50 for CN(C)C/C=C/C(=O)Nc1ccc(O[C@H]2CCC[C@@H](Nc3ncc(Cl)c(-c4c[nH]c5ccccc45)n3)C2)cc1 .
112

Specify measured IC50 for CN(C)C/C=C/C(=O)Nc1ccc(C(=O)N2CCC[C@@H](Nc3ncc(Br)c(-c4c[nH]c5ccccc45)n3)C2)cc1 .
115

Where do these numbers come from? They come from ChEMBL document CHEMBL4828703.
